Provenance of the data: PubChem BioAssay (NCI)

- Tested on: NCI-H226 lung
- METHOD: NCI tumour cell line growth inhibition, 48 h; in the data active = GI50 below about 0.43 µM; inactive = the rest
Response enum: Yes = active, No = inactive

COMPOUND	CAT
Fc1ccc(C2C3CCOc4c(ccc5ccccc45)C3=NN2c2ccccc2)cc1 (stereo not given)	No
FC(F)(F)c1ccc(NCc2nc3ccccc3[nH]2)cc1	No

*Q* Dear all, I need the recorded test outcome for `CCN(CCO)CCCOc1ccc2c(Nc3cc(CC(=O)Nc4cccc(F)c4)[nH]n3)ncnc2c1` , thank you.
*A* No

*Q* Can you handle `COc1cc(Cn2c(SCC(=O)Nc3ccc(Cl)cc3)nc3ccccc3c2=O)cc(OC)c1OC` next?
*A* No

*Q* Can you handle `O=C(O)c1cn(C2CC2)c2cc(N3CCN(Cc4ccc5ccccc5c4O)CC3)c(F)cc2c1=O` next?
*A* No

*Q* Can you handle `COc1ccc2nc3cc(Cl)ccc3c(Nc3cc(C(C)C)c(O)cc3C)c2c1` next?
*A* No

*Q* Can you handle `CC(=O)C(C=O)C(C)=O.CC(=O)CC(C)=O.CC(=O)CC(C)=O.[Ru]` next?
*A* No

*Q* Can you handle `N=C1/C(=C2\Nc3ccccc3S2)CC(=O)N1c1ccc(SC(F)F)cc1` next?
*A* No

*Q* Can you handle `OCc1ccc(N(Cc2ccc(F)cc2)CC2CCC2)cc1Cl` next?
*A* Yes

*Q* Can you handle `C[C@H](c1ccccc1)N(CCC(=O)O)C(=O)CCN(C(=O)CCN(C(=O)CCN[C@H](C)c1ccccc1)[C@H](C)c1ccccc1)[C@H](C)c1ccccc1` next?
*A* No
